Source of measurements: patent US20170145113A1

Exercise: state measured kon for each of the binders provided.
Target: T1, His-tagged human HtrA1 protease domain (human, UniProt Q92743 161-367)
T1 construct: His-tagged protease domain; also called huHtrA1-PD-His; huHtrA1-PD
T1 sequence (Q92743 other isoform, or with tags, fused parts or gaps limits assumed): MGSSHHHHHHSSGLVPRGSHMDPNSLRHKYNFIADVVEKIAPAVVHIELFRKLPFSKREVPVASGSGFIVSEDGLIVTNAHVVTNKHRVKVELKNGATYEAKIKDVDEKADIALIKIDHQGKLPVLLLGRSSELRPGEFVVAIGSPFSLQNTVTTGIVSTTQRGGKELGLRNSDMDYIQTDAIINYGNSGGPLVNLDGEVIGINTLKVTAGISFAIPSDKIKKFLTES
Experiment: SPR (BIACORE T200), huHtrA1-PD-His captured by anti-His, Fab injected
# output: bare number, implied unit M⁻¹ s⁻¹

Prompt: Using known records, supply kon for combination mutant LC5.HC3 Fab (Fab, V domains shown, Fab) VH: EVQLVQSGAEVKKPGASVKVSCKASGYKFTDSEMHWVRQAPGQGLEWIGGVDPETDGAAYNQKFKGRATITRDTSTSTAYLELSSLRSEDTAVYYCTRGYDYDYALDYWGQGTLVTVSS VL: DIQMTQSPSSLSASVGDRVTITCRASSSVNFIHWYQQKPGKAPKPLISATSELASGVPSRFSGSGSGTDFTLTISSLQPEDFATYYCQQWSSNPWTFGQGTKVEIK
Response: 233000

Prompt: Using known records, supply kon for combination mutant LC7.HC5 Fab (Fab, V domains shown, Fab) VH: EVQLVQSGAEVKKPGASVKVSCKASGYTFTDSELHWVRQAPGQGLEWIGGVDPETDGAAYNQKFKGRATITRDTSTSTAYLELSSLRSEDTAVYYCTRGYDYDYALDYWGQGTLVTVSS VL: DIQMTQSPSSLSASVGDRVTITCRASSSVNFIHWYQQKPGKAPKPLISATSNLASGVPSRFSGSGSGTDFTLTISSLQPEDFATYYCQQWYSNPWTFGQGTKVEIK
Response: 406000
